# condition.info: 420 K; Liquid; Gas chromatography
Would you mind labelling by vapor or sublimation pressure? At or over 0.3 kPa is fulfilled, under is not fulfilled.

| compound | assigned.class |
| --- | --- |
| CC/C=C/CCCCCCCCCCOC(C)=O [(E)-tetradec-11-enyl acetate] | fulfilled |
| CCCCCCCC/C=C\CCCOC(C)=O [(Z)-tridec-4-enyl acetate] | fulfilled |
| CCC/C=C\CCCCCCCOC(C)=O [(Z)-dodec-8-enyl acetate] | fulfilled |
| CC/C=C/C=C/CCCCCCCCOC(C)=O [(9E,11E)-tetradeca-9,11-dienyl acetate] | fulfilled |
| CCCC/C=C\CCCCCCCCCCCCOC(C)=O [(Z)-octadec-13-en-1-yl acetate] | not fulfilled |
| C#CCOC(=O)/C=C(C)/C=C/CC(C)CCCC(C)C (configuration not stated) [prop-2-ynyl (2E,4E)-3,7,11-trimethyldodeca-2,4-dienoate] | not fulfilled |

###

# condition.info: 350 K; Liquid; Gas chromatography
Reported vapor or sublimation pressure values are given for each entry in this list.

| compound | vapor or sublimation pressure (kPa) |
| --- | --- |
| CCCCCCCC/C=C\CCCOC(C)=O [(Z)-tridec-4-enyl acetate] | 0.0142 |
| CCC/C=C\CCCCCCCOC(C)=O [(Z)-dodec-8-enyl acetate] | 0.027 |
| CC/C=C/CCCCCCCCCCOC(C)=O [(E)-tetradec-11-enyl acetate] | 0.0049 |
| CCOC(=O)/C=C(C)/C=C/C[C@@H](C)CCCC(C)C [ethyl (S,2E,4E)-3,7,11-trimethyldodeca-2,4-dienoate] | 0.0029 |
| CC/C=C/C=C/CCCCCCCCOC(C)=O [(9E,11E)-tetradeca-9,11-dienyl acetate] | 0.0031 |
| CCCC/C=C\CCCCCCCCCCCCOC(C)=O [(Z)-octadec-13-en-1-yl acetate] | 0.00023 |
| C#CCOC(=O)/C=C(C)/C=C/CC(C)CCCC(C)C (configuration not stated) [prop-2-ynyl (2E,4E)-3,7,11-trimethyldodeca-2,4-dienoate] | 0.0012 |

###

# condition.info: 370 K; Liquid; Gas chromatography
Numbers after ± are expanded uncertainties.

| compound | vapor or sublimation pressure |
| --- | --- |
| C#CCOC(=O)/C=C(C)/C=C/CC(C)CCCC(C)C (centres undefined) [prop-2-ynyl (2E,4E)-3,7,11-trimethyldodeca-2,4-dienoate] | 0.0065 ± 0.003 kPa |
| CCOC(=O)/C=C(C)/C=C/C[C@@H](C)CCCC(C)C [ethyl (S,2E,4E)-3,7,11-trimethyldodeca-2,4-dienoate] | 0.014 ± 0.006 kPa |
| CC/C=C/C=C/CCCCCCCCOC(C)=O [(9E,11E)-tetradeca-9,11-dienyl acetate] | 0.015 ± 0.007 kPa |
| CC/C=C/CCCCCCCCCCOC(C)=O [(E)-tetradec-11-enyl acetate] | 0.022 ± 0.01 kPa |

###

Reported vapor or sublimation pressure values are given for each entry in this list.
# condition.info: 410 K; Liquid; Gas chromatography

| compound | vapor or sublimation pressure / kPa |
| --- | --- |
| CC/C=C/CCCCCCCCCCOC(C)=O [(E)-tetradec-11-enyl acetate] | 0.27 |
| CCC/C=C\CCCCCCCOC(C)=O [(Z)-dodec-8-enyl acetate] | 0.93 |
| CC/C=C/C=C/CCCCCCCCOC(C)=O [(9E,11E)-tetradeca-9,11-dienyl acetate] | 0.19 |
| CCCCCCCC/C=C\CCCOC(C)=O [(Z)-tridec-4-enyl acetate] | 0.57 |
| CCCC/C=C\CCCCCCCCCCCCOC(C)=O [(Z)-octadec-13-en-1-yl acetate] | 0.03 |
| CCOC(=O)/C=C(C)/C=C/C[C@@H](C)CCCC(C)C [ethyl (S,2E,4E)-3,7,11-trimethyldodeca-2,4-dienoate] | 0.18 |
| C#CCOC(=O)/C=C(C)/C=C/CC(C)CCCC(C)C (configuration not stated) [prop-2-ynyl (2E,4E)-3,7,11-trimethyldodeca-2,4-dienoate] | 0.098 |

###

# condition.info: 340 K; Liquid; Gas chromatography
Reported vapor or sublimation pressure values are given for each entry in this list.
measured.parameter: vapor or sublimation pressure (kPa)

| compound | measured.parameter | result.number |
| --- | --- | --- |
| C#CCOC(=O)/C=C(C)/C=C/CC(C)CCCC(C)C (configuration not stated) [prop-2-ynyl (2E,4E)-3,7,11-trimethyldodeca-2,4-dienoate] | vapor or sublimation pressure | 0.00049 |
| CCC/C=C\CCCCCCCOC(C)=O [(Z)-dodec-8-enyl acetate] | vapor or sublimation pressure | 0.013 |
| CCCC/C=C\CCCCCCCCCCCCOC(C)=O [(Z)-octadec-13-en-1-yl acetate] | vapor or sublimation pressure | 8.3e-05 |
| CC/C=C/C=C/CCCCCCCCOC(C)=O [(9E,11E)-tetradeca-9,11-dienyl acetate] | vapor or sublimation pressure | 0.0013 |
| CC/C=C/CCCCCCCCCCOC(C)=O [(E)-tetradec-11-enyl acetate] | vapor or sublimation pressure | 0.0021 |
| CCCCCCCC/C=C\CCCOC(C)=O [(Z)-tridec-4-enyl acetate] | vapor or sublimation pressure | 0.0065 |
| CCOC(=O)/C=C(C)/C=C/C[C@@H](C)CCCC(C)C [ethyl (S,2E,4E)-3,7,11-trimethyldodeca-2,4-dienoate] | vapor or sublimation pressure | 0.0012 |

###

# condition.info: 298.15 K; Liquid; Gas chromatography
Reported vapor or sublimation pressure values are given for each entry in this list.

| compound | vapor or sublimation pressure, kPa |
| --- | --- |
| CC/C=C/C=C/CCCCCCCCOC(C)=O [(9E,11E)-tetradeca-9,11-dienyl acetate] | 1.5e-05 |
| CCCC/C=C\CCCCCCCCCCCCOC(C)=O [(Z)-octadec-13-en-1-yl acetate] | 4.1e-07 |
| CC/C=C/CCCCCCCCCCOC(C)=O [(E)-tetradec-11-enyl acetate] | 2.8e-05 |
| CCOC(=O)/C=C(C)/C=C/C[C@@H](C)CCCC(C)C [ethyl (S,2E,4E)-3,7,11-trimethyldodeca-2,4-dienoate] | 1.4e-05 |
| C#CCOC(=O)/C=C(C)/C=C/CC(C)CCCC(C)C (stereo not given) [prop-2-ynyl (2E,4E)-3,7,11-trimethyldodeca-2,4-dienoate] | 4.2e-06 |

###

Reported vapor or sublimation pressure values are given for each entry in this list.
# condition.info: 370 K; Liquid; Gas chromatography
± gives the expanded uncertainty stated by the source.

| compound | vapor or sublimation pressure |
| --- | --- |
| CCCCCCCC/C=C\CCCOC(C)=O [(Z)-tridec-4-enyl acetate] | 0.058 ± 0.006 kPa |
| CCCC/C=C\CCCCCCCCCCCCOC(C)=O [(Z)-octadec-13-en-1-yl acetate] | 0.0015 ± 0.0007 kPa |
| CCC/C=C\CCCCCCCOC(C)=O [(Z)-dodec-8-enyl acetate] | 0.1 ± 0.009 kPa |

###

# condition.info: 460 K; Liquid; Gas chromatography
Reported vapor or sublimation pressure values are given for each entry in this list.

| molecule | vapor or sublimation pressure (kPa) |
| --- | --- |
| CCCC/C=C\CCCCCCCCCCCCOC(C)=O [(Z)-octadec-13-en-1-yl acetate] | 0.48 |
| CCCCCCCC/C=C\CCCOC(C)=O [(Z)-tridec-4-enyl acetate] | 4.8 |
| CCOC(=O)/C=C(C)/C=C/C[C@@H](C)CCCC(C)C [ethyl (S,2E,4E)-3,7,11-trimethyldodeca-2,4-dienoate] | 1.9 |

###

# condition.info: 330 K; Liquid; Gas chromatography

| molecule | vapor or sublimation pressure / kPa |
| --- | --- |
| CCC/C=C\CCCCCCCOC(C)=O [(Z)-dodec-8-enyl acetate] | 0.0056 |
| CC/C=C/CCCCCCCCCCOC(C)=O [(E)-tetradec-11-enyl acetate] | 0.00086 |
| CCCCCCCC/C=C\CCCOC(C)=O [(Z)-tridec-4-enyl acetate] | 0.0028 |
| CC/C=C/C=C/CCCCCCCCOC(C)=O [(9E,11E)-tetradeca-9,11-dienyl acetate] | 0.00051 |
| C#CCOC(=O)/C=C(C)/C=C/CC(C)CCCC(C)C (configuration not stated) [prop-2-ynyl (2E,4E)-3,7,11-trimethyldodeca-2,4-dienoate] | 0.00018 |
| CCCC/C=C\CCCCCCCCCCCCOC(C)=O [(Z)-octadec-13-en-1-yl acetate] | 2.7e-05 |
| CCOC(=O)/C=C(C)/C=C/C[C@@H](C)CCCC(C)C [ethyl (S,2E,4E)-3,7,11-trimethyldodeca-2,4-dienoate] | 0.00047 |

###

# condition.info: 310 K; Liquid; Gas chromatography
measured.parameter: vapor or sublimation pressure (kPa)

| compound | result.number |
| --- | --- |
| CCCC/C=C\CCCCCCCCCCCCOC(C)=O [(Z)-octadec-13-en-1-yl acetate] | 2.2e-06 |
| CC/C=C/CCCCCCCCCCOC(C)=O [(E)-tetradec-11-enyl acetate] | 0.00011 |
| CCC/C=C\CCCCCCCOC(C)=O [(Z)-dodec-8-enyl acetate] | 0.00091 |
| CC/C=C/C=C/CCCCCCCCOC(C)=O [(9E,11E)-tetradeca-9,11-dienyl acetate] | 6.3e-05 |
| C#CCOC(=O)/C=C(C)/C=C/CC(C)CCCC(C)C (configuration not stated) [prop-2-ynyl (2E,4E)-3,7,11-trimethyldodeca-2,4-dienoate] | 1.9e-05 |
| CCOC(=O)/C=C(C)/C=C/C[C@@H](C)CCCC(C)C [ethyl (S,2E,4E)-3,7,11-trimethyldodeca-2,4-dienoate] | 5.7e-05 |
| CCCCCCCC/C=C\CCCOC(C)=O [(Z)-tridec-4-enyl acetate] | 0.00042 |
